pIC50 listing for selected compounds.
# measured_on: FTase from human brain cytosol (Homo sapiens, UniProt P49354+P49356)
# Construct: FTase from human brain cytosol
# method_summary: In vitro FTase assay ([3H]-farnesylation of H-Ras)
# assay_context: mean of 2 experiments (lowest-highest); read-out: Enzyme assays IC50 FTase
# pIC50 = -log10(concentration in molar units)

COC(=O)[C@H](CC(C)C)NC(=O)c1ccc(NC[C@@H](N)CS)cc1-c1ccccc1: 6.44
COC(=O)[C@H](CCSC)NC(=O)c1ccc(NC[C@@H](N)CS)cc1-c1ccccc1: 7.52
COc1cc(Cn2cncc2CC(=O)N2Cc3nc(-c4ccccc4Br)cn3Cc3c(F)cccc32)ccc1C#N: 7.82

# ---- query compound ----
Data request: Return reported pIC50; argument: `CC[C@H](C)[C@@H](CN1CSC(C)(C)[C@H]1C(=O)N[C@@H](CCSC)C(=O)OC)NC[C@@H](N)CS`
Data returned: 7.04
